Data provenance is the supplement of paper PMC9254222.

Listed next: entries and their corresponding Wnt reporter firefly/Renilla luciferase ratio.
Test system: HEK293T (UBE3A T485A transfected, BAR Wnt reporter)
Test: Wnt reporter firefly/Renilla luciferase ratio relative to plate median (fold (linear ratio)); higher = more Wnt/beta-catenin reporter activation
Conditions: concentration: 1 uM; 24 h
In all, about 1,100 compounds were measured (“Wnt reporter firefly/Renilla luciferase ratio relative to plate median”: median about 1.1, highest 2% from about 1.6 on). Many of the other results were omitted from the sample, so the highest values are more common in it than they were.
Number, no unit, nothing else.

Worked cases, answers included:
Query :: Return Wnt reporter firefly/Renilla luciferase ratio for the following molecule: c1ccc2cc3c(ccc4ccccc43)cc2c1 [Benz(a)anthracene]
Result :: 0.949

Query :: Give the reported Wnt reporter firefly/Renilla luciferase ratio for this molecule. C/C=C/c1ccc(OC)cc1 [(E)-Anethole]
Result :: 0.971

Query :: Give the reported Wnt reporter firefly/Renilla luciferase ratio for this molecule. Nc1ccc2c(c1)C(=O)c1ccccc1C2=O [2-Aminoanthraquinone]
Result :: 1.2

Query :: For Nc1ncn([C@@H]2O[C@H](CO)[C@@H](O)[C@H]2O)c(=O)n1 [5-azacytidine] , write its Wnt reporter firefly/Renilla luciferase ratio.
Result :: 1.36

Query :: Annotate the molecule NC(CCCP(=O)(O)O)C(=O)O (racemic) with its measured Wnt reporter firefly/Renilla luciferase ratio.
Result :: 0.925

Next:
Query :: Using known records, supply Wnt reporter firefly/Renilla luciferase ratio for c1ccc2[nH]c(-c3cscn3)nc2c1 [Thiabendazole]
Result :: 1.08

Query :: Note down Wnt reporter firefly/Renilla luciferase ratio recorded for Cc1ccc(N(C)C)cc1 [N,N,4-Trimethylaniline]
Result :: 1.2

Query :: Give reported Wnt reporter firefly/Renilla luciferase ratio value for CCCCCCCCCCCCc1ccccc1S(=O)(=O)O [Dodecylbenzenesulfonic acid]
Result :: 1.13

Query :: Name the recorded Wnt reporter firefly/Renilla luciferase ratio of the item OCC1OC(n2cnc3c(NC4CCCC4)ncnc32)C(O)C1O (configuration not stated) [N6-Cyclopentyl adenosine] in your answer.
Result :: 1.06

Query :: Name the recorded Wnt reporter firefly/Renilla luciferase ratio of the item CC(C)NCC(O)c1ccc(O)c(O)c1.Cl (configuration not stated) [Isoproterenol hydrochloride] in your answer.
Result :: 1.23

Query :: Fill in reported Wnt reporter firefly/Renilla luciferase ratio for this entry: CCCCC(CC)CO (configuration not stated) [2-Ethyl-1-hexanol]
Result :: 0.988

Query :: Give Wnt reporter firefly/Renilla luciferase ratio for the following molecule: O=N[O-].[Na+] [Sodium nitrite]
Result :: 0.943

Query :: Output measured Wnt reporter firefly/Renilla luciferase ratio for this item: CCCN(CCC)C(=O)SCC
Result :: 0.859

Query :: Consider the molecule CCCCC(CC)COP(=O)(OCC(CC)CCCC)OCC(CC)CCCC (configuration not stated) [Tris(2-ethylhexyl) phosphate] . State its measured Wnt reporter firefly/Renilla luciferase ratio.
Result :: 1.17

Query :: Given the molecule CC/C(=C(/CC)c1ccc(O)cc1)c1ccc(O)cc1 [Diethylstilbestrol] , write its reported Wnt reporter firefly/Renilla luciferase ratio.
Result :: 0.807

Query :: For COc1ccc([N+](=O)[O-])cc1N [2-Methoxy-5-nitroaniline] , write its Wnt reporter firefly/Renilla luciferase ratio.
Result :: 0.988

Query :: Give the reported Wnt reporter firefly/Renilla luciferase ratio for this molecule. NC(=O)N/N=C/c1ccc([N+](=O)[O-])o1 [Nitrofurazone]
Result :: 1.02

Query :: Specify Wnt reporter firefly/Renilla luciferase ratio for O=C(N[C@@H](c1ccccc1)[C@@H]1CCCCN1)c1cccc(C(F)(F)F)c1Cl and stop.
Result :: 1.24

Query :: Look up and state reported Wnt reporter firefly/Renilla luciferase ratio for OC(Cn1cncn1)(Cn1cncn1)c1ccc(F)cc1F [Fluconazole]
Result :: 0.884
